# system.tested: biotinylated labeled human GPC3 protein (produced in-house) (human, UniProt P51654 25-559, limits assumed, biotinylated (Dojindo, Cat. No. LK03); sites not stated)
# procedure.details: ELISA, biotinylated human GPC3 protein
So I've got a bunch of binders here, and I need their OD450 at 0.11 nM values.
Could you give me the number in OD450? Just the number is fine.

Return reported OD450 at 0.11 nM; argument: hAb005LH2L1b (antibody, human IgG1, V domains shown, Humanized F3.54.12; VH H2 + VL L1b; expressed as human IgG1) VH: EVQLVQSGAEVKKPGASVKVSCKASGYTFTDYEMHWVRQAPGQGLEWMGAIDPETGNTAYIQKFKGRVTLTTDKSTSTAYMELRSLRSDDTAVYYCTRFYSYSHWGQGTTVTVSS VL: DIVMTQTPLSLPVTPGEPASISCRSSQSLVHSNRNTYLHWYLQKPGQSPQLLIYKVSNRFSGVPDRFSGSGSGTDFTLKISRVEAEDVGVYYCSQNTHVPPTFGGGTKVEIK
0.856

Lookup hAb007LH1L1b (antibody, human IgG1, V domains shown, Humanized F3.81.19; VH H1 + VL L1b; expressed as human IgG1) VH: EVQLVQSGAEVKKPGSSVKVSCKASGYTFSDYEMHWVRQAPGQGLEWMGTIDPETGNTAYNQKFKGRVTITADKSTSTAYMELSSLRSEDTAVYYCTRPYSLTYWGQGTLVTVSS VL: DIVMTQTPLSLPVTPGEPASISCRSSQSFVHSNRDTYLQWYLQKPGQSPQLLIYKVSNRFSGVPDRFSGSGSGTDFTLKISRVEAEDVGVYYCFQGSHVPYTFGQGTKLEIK
1.07
